- measurement target: PRMT5/MEP50 (Homo sapiens)
- test: MTase-Glo methyl transferase assay, Method A (Histone H4 peptide, 1 µM MTA, 24 h pre-incubation)
- Assay type: biochemical
- Set-up: made in house
- measurement setup: read-out: PRMT5 MTase Glo Ki (nM, Meth. A)
Field: label. Allowed values: 1 (Ki < 0.5 nM) or 0 (Ki >= 0.5 nM).

Problem: For the compound Cc1cc2cc(C(=O)N(Cc3ccc(C(F)(F)F)cn3)CC3CC3)ccc2nc1N , is Ki under 0.5 nM?
0

Please let me know if Cc1cc2cc(C(=O)N(Cc3ccc(C(F)F)cn3)[C@H](C)c3cnn(C)n3)ccc2nc1N (single isomer, unassigned) shows Ki below 0.5 nM.
1

Confirm or reject: Ki of Cc1cc2cc(C(=O)N(Cc3ccc(C(F)(F)F)cn3)[C@H](C)c3ncccc3F)ccc2nc1N lies strictly below 0.5 nM
1

Take the compound Cc1cc2cc(C(=O)N(Cc3ccc(C(F)(F)F)cn3)Cc3ncccn3)ccc2nc1N and say whether its Ki is less than 0.5 nM.
0

API: query returns whether the compound falls strictly under 0.5 nM in Ki. Query: Cc1cc2cc(C(=O)N(Cc3ccc(Br)cn3)[C@@H]3CCCN(C)C3=O)ccc2nc1N (single isomer, unassigned)
1

For this compound, is Ki lower than 0.5 nM? Cc1cc2cc(C(=O)N(Cc3ccc(C(F)(F)F)cn3)[C@H](C)c3ncccc3F)cnc2nc1N
1

# check: Ki < 0.5 nM for C[C@H](c1ncccn1)N(Cc1ccc(C(F)(F)F)nn1)C(=O)c1ccc2nc(N)c(Cl)cc2c1 (single isomer, unassigned)
0

----------
Catalogue of Ki readings, one per entry.
- measurement target: PRMT5/MEP50 (Homo sapiens, UniProt O14744)
- Sequence (O14744 whole entry): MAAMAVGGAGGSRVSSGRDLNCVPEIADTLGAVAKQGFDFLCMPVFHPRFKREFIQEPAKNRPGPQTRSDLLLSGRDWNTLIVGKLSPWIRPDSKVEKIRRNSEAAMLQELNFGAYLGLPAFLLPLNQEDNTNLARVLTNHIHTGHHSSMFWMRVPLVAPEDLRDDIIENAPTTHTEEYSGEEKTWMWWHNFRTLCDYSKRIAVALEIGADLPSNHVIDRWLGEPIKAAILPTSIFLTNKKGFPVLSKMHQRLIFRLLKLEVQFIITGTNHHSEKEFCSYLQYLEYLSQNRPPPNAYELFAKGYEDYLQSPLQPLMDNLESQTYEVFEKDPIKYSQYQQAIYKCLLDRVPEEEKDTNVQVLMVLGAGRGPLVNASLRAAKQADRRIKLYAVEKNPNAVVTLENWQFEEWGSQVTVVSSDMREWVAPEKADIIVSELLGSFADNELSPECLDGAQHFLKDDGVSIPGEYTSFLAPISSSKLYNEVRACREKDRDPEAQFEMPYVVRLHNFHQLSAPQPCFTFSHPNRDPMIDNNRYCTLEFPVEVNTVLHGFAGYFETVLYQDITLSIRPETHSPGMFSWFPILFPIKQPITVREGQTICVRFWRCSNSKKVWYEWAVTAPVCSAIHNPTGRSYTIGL
- Sequence (Q9BQA1 whole entry partner): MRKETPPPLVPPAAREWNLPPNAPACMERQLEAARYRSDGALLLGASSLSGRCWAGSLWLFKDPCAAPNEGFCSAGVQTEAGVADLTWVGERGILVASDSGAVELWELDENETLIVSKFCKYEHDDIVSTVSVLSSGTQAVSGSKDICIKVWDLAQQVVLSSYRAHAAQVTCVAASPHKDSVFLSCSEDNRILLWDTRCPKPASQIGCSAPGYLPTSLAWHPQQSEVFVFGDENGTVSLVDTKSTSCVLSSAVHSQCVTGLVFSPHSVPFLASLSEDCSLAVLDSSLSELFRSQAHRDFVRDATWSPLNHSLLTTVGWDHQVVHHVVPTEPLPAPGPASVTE
- test: MTase-Glo methyl transferase assay, Method A (Histone H4 peptide, 1 µM MTA, 24 h pre-incubation)
- Assay type: biochemical
- Parameters: made in house
- measurement setup: read-out: PRMT5 MTase Glo Ki (nM, Meth. A)
Returns: string containing the numeric result and its unit.

Entry Cc1cc2cc(C(=O)N(Cc3ccc(C(F)(F)F)cn3)Cc3ncccc3F)ncc2nc1N : reported Ki = ?
0.36 nM

Item Cc1cc2cc(C(=O)N(Cc3ccc(Cl)cn3)[C@H](C)c3ncccn3)c(F)cc2nc1N has what recorded Ki?
0.54 nM

For the compound shown here, COC[C@@H](c1ccccn1)N(Cc1ccc(C(F)(F)F)cn1)C(=O)c1ccc2nc(N)c(C)cc2c1 (single isomer, unassigned) , give the reported Ki.
1.69 nM

I would be grateful if you could share the reported Ki for Cc1cc2cc(C(=O)N(Cc3ccc(C(F)(F)F)cn3)[C@H](C)c3ncc(F)cn3)ccc2nc1N (single isomer, unassigned) .
0.14 nM

Given C[C@H](c1ncccn1)N(Cc1ccc(C(F)(F)F)cn1)C(=O)c1cnc2nc(N)c(Br)cc2c1 , state its recorded Ki.
0.13 nM

Given the entry Cc1cc2cc(C(=O)N(Cc3ccc(C#N)cn3)[C@H](C)c3ncccn3)c(F)cc2nc1N , report its measured Ki.
1.68 nM

Entry C[C@H](c1ncccc1F)N(Cc1ccc(C#N)cn1)C(=O)c1cnc2nc(N)c(Br)cc2c1 : reported Ki = ?
0.29 nM

----------
Listed below: pIC50 values for each entry.
- Test system: HCT116 MTAP null cells
- test: HCT116 proliferation assay, MTAP null cells (CellTiter-Glo, 6 days)
- Assay type: cell-based
- measurement setup: HCT116-MTAP null, 144 h, read-out: Protif_ HCT116-MTAP null IC50
The quantity pIC50 is defined as the negative base-10 logarithm of the molar concentration.

Consider the compound shown here: Cc1cc2cc(C(=O)N(Cc3ccc4[nH]ccc4c3)Cc3ccc(C(F)(F)F)cn3)ccc2nc1N [Example 623] What is its recorded pIC50?
7.25

# get_value(readout='pIC50', item= Cc1cc2cc(C(=O)N(Cc3ccc(Br)cn3)[C@@H]3CCCN(C)C3=O)ccc2nc1N (single isomer, unassigned) [Example 448] )
6.62

So what does the record say about pIC50 for C[C@H](c1ncccn1)N(Cc1ccc(C(F)(F)F)cn1)C(=O)c1cnc2nc(N)c(Cl)cc2c1 [Example 420] ?
6.65

May I ask what pIC50 has been recorded for Cc1cc2cc(C(=O)N(Cc3ccc(CC(N)=O)cc3)Cc3ccc(C(F)(F)F)cn3)ccc2nc1N [Example 680] ?
6.80

If you can, please state the reported pIC50 value of CC(=O)c1ccc(CN(C(=O)c2ccc3nc(N)c(C)cc3c2)[C@H](C)c2ncccn2)nc1 [Example 754] .
6.89

Consider the compound shown here: N#Cc1ccc(CN(C(=O)c2ccc3nc(N)c(Br)cc3c2)C2CCCC2C#N)nc1 (stereo not shown) [Example 827] What is its recorded pIC50?
6.06

Give its pIC50 value. Item: Cc1cc2cc(C(=O)N(Cc3ccc(C(F)(F)F)cn3)[C@@H]3COCC[C@H]3F)ccc2nc1N (mixture of isomers) [Example 749]
7.02
